- Experimental System: muscarinic receptors
- Protocol Details: Displacement of muscarinic agonist 3H-Oxotremorine-M (3H-OXO-M) binding, cerebral cortex membranes
- Design: species or system Hooded Lister rats
- Conditions: rat cerebral cortex; 2 nM 3H-OXO-M; 37° C., 30 min; E3 as hydrochloride salt, all others as oxalate salts
A collection of compounds and their measured IC50
Property: IC50 (nM)

>>> numeric_result("Nc1nncc(C2CN3CCC2C3)n1 (racemic)")
1.1
>>> numeric_result("Cc1nncc(C2CN3CCC2CC3)n1 (racemic)")
3.3
>>> numeric_result("Nc1nncc(C2CN3CCC2CC3)n1 (racemic)")
11
>>> numeric_result("Nc1nncc(C23CCCN(CC2)C3)n1 (racemic) [Example E2]")
5
>>> numeric_result("Cc1nncc(C23CCN(CC2)C3)n1")
70
>>> numeric_result("Cc1nncc(C23CCCN(CC2)C3)n1 (racemic) [Example E1]")
33
>>> numeric_result("COc1nncc(C23CCN(CC2)C3)n1")
1100
>>> numeric_result("CCc1nncc([C@@H]2CN3CC[C@@H]2C3)n1 (relative stereo)")
68
>>> numeric_result("Nc1nncc(C23CCN(CC2)C3)n1")
4
>>> numeric_result("Cc1nncc([C@@H]2CN3CC[C@@H]2C3)n1 (relative stereo)")
3.1
